# targetEntity: T1, SARS-CoV2 Spike ecto foldon Trimer expressed with a C-terminal myc-myc-hexahistidine (SARS-CoV-2, UniProt P0DTC2 14-1213)
# T1 construct: extracellular domain
# assayOverview: SPR Biacore, mAb captured by anti-hFc, 37C
Could you please report measured kon for the items listed next?
Please reply with the bare figure in M⁻¹ s⁻¹ and do not write the unit itself.

Specify kon for mAb14286 (antibody, V domains shown) VH: QVQLVQSGAEVKKPGASVKVSCKASGYTFTDYFIHWVRQAPGQGLEWMGWINPTSGGTNYAQKFRGRVTMTRDTSISTAYVELSRLRSDDTALYYCARDLPFYSDTKQFDYWGQGTLVTVSS VL: QSALTQPASVSGYPGQSITISCTGTSSDVGGYNYVSWYQQHPGKAPKLMIFDVSNRPSGVSNRFSGSKSGNTASLTFSGLQAEDEADYYCSSYTSSSTLVFGGGTKLTVLG and stop. 2.59e+06

Quick one: give measured kon for mAb15162 (antibody, V domains shown) VH: EVQLVETGGGLIQPGGSLRLSCAASEFIVSRNYMSWVRQAPGKGLEWVSLIYSGGSTYYADSVKGRFTISRDNSKNILYLQMNSLRAEDTAVYYCARDRGGISDYWGQGTLVTVSS VL: DIQMTQSPSSLSASVGDRVTITCQASQDINKYLNWFQQKPGKAPKLLIYDASNLETGVPSRFSGSGSGTDFTFTISSLQPEDIATYYCQQYDNLPRTFGQGTKLEIKR 440000
